Organism: Rattus norvegicus
Assay: Open TG-GATES - Regimen: Daily Repeat
Assay type: toxicity, organism-based, Sprague-Dawley
Set-up: regimen Daily Repeat, gender Male, age 6 weeks
Details: in vivo, po, 0 mg/kg, […], tissue Blood, route gavage, dose level Control, time 28 day
reported_metric: RBC (x10_4/ul)

[[record]]
molecule = "Cc1cccc(Nc2cc(Cl)nc(SCC(=O)O)n2)c1C"
reported_metric = "RBC"
display_unit = "x10_4/ul"
readout_value = 796.8

[[record]]
molecule = "O=C1CN(/N=C/c2ccc(-c3ccc([N+](=O)[O-])cc3)o2)C(O)=N1"
reported_metric = "RBC"
display_unit = "x10_4/ul"
readout_value = 803.2

[[record]]
molecule = "COc1ccc(O)c(C(C)(C)C)c1.COc1ccc(O)cc1C(C)(C)C [BUTYLATED HYDROXYANISOLE]"
reported_metric = "RBC"
display_unit = "x10_4/ul"
readout_value = 769

[[record]]
molecule = "Cn1c(=O)c2c(ncn2C)n(C)c1=O"
reported_metric = "RBC"
display_unit = "x10_4/ul"
readout_value = 778.2

[[record]]
molecule = "COc1ccc(Cl)cc1C(=O)NCCc1ccc(S(=O)(=O)NC(=O)NC2CCCCC2)cc1 [GLYBURIDE]"
reported_metric = "RBC"
display_unit = "x10_4/ul"
readout_value = 753.2


// data source = ChEMBL document CHEMBL3885861
